- Protocol Details: Rat liver microsomal metabolic stability
- Assay type: in vitro ADME
- Measurement Parameters: rat liver microsomes, NADPH, 37°C
Criterion: half-life at 1 µM meeting or surpassing 4 h. Met: criterion met. Not met: criterion not met.

Please review the entries below; each comes with its answer.
C[C@@H](Nc1nnc(N2CCN(C)CC2)c2cc(=O)n(C3CCC3)cc12)c1cccc(C(F)F)c1F criterion not met
CC(C)N1CCN(c2nnc(N[C@H](C)c3cccc(C(F)F)c3F)c3cn(N4CCOCC4)c(=O)cc23)CC1 criterion met
CNc1nnc(N[C@H](C)c2cccc(C(F)(F)F)c2C)c2cn(C3CC3)c(=O)cc12 criterion not met
C[C@@H](Nc1nnc(N2CCC2)c2cc(=O)n(C3CC3)cc12)c1cccc(C(F)F)c1F criterion not met
C[C@@H](Nc1nnc(N)c2cc(=O)n(C3(C)CC3)cc12)c1cccc(C(F)F)c1F.O=CO criterion met

**Q:** Please indicate if the recorded half-life at 1 µM for "CNc1nnc(N[C@H](C)c2cccc(C(F)F)c2F)c2cn(C3(C)CC3)c(=O)cc12.O=CO" meets or exceeds 4 h.
**A:** criterion met

**Q:** Check if half-life at 1 µM >= 4 h (inclusive). Item: "CC(C)Nc1nnc(N[C@H](C)c2cccc(C(F)F)c2F)c2cn(C3(C)CC3)c(=O)cc12.O=CO"
**A:** criterion not met
